molecular target: furin, P09958; test: furin cleavage Z-score vs untreated control; higher = more cleavage, active = 3.5 or more, inactive = 1 or less, 8 variable residues between constant flanks; conditions: 15 min;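 also: purified furin at 1:10 enzyme:substrate in 50 mM HEPES pH 7.5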
Sequence (P09958 whole entry): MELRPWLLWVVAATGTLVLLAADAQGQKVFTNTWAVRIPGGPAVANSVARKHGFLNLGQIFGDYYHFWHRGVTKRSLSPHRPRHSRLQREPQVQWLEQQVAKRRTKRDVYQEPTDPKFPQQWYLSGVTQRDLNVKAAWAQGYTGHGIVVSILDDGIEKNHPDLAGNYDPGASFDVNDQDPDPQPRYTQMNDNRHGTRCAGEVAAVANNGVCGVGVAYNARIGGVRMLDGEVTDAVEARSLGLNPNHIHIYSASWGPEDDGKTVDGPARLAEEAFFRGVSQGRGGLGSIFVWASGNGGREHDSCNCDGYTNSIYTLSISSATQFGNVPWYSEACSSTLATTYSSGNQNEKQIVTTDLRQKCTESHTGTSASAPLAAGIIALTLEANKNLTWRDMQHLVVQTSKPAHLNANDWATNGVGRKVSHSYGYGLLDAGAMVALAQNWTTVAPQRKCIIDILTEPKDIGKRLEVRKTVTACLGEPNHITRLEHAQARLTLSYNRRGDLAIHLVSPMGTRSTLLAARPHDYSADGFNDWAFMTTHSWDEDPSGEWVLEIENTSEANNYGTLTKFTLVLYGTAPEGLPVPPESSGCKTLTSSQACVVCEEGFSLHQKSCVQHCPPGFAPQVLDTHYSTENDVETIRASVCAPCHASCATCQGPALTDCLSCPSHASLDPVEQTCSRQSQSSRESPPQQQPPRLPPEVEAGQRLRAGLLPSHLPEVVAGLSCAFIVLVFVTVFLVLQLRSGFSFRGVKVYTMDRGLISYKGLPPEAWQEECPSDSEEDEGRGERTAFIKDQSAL
Some of the results follow. The hit rate among all sequences tested is not known here.
VALUE_TYPE: furin cleavage Z-score
Keep the answer to the number alone.

input: Item CANEECSQHLAGNASASA [HC1681] has what recorded furin cleavage Z-score?
output: 1.58

input: Please give the measured furin cleavage Z-score for this sequence: CARLKRNQEKAGNASASA [FS-2707]
output: 0.44

input: What value of furin cleavage Z-score has been reported for the following sequence? CAMWECSQHLAGNASASA [HC1688]
output: 1.15

input: Recorded furin cleavage Z-score of CAPPWRLRRSAGNASASA [FS-1383] , please.
output: 9.31

input: Endpoint output: furin cleavage Z-score of CARLGRIVDRAGNASASA [FS-1737] . Value?
output: -0.37

input: Data request, read-out furin cleavage Z-score, for CARLKREIEKAGNASASA [FS-2431]
output: 9.27

input: Bench note: what furin cleavage Z-score did CALPGNPAIAAGNASASA [HC1051] show?
output: -0.342

input: May I ask what furin cleavage Z-score has been recorded for CARLGRSIDDAGNASASA [FS-2275] ?
output: 6.98

input: Can you share its furin cleavage Z-score? I mean this sequence: CAPPRRRARSAGNASASA [FS-72]
output: 10.8

input: Query: furin cleavage Z-score; subject: CAYKGVWRVDAGNASASA [HC1168]
output: -0.703

input: Quick one: furin cleavage Z-score for CAPPRRRRRSAGNASASA [FS-948] ?
output: 8.78

input: Param item = CAPTDPRRRSAGNASASA [HC215] ; retrieve measured furin cleavage Z-score.
output: 3.28

input: Which furin cleavage Z-score reading was recorded for the sequence CAVDAETHVTAGNASASA [HC351] ?
output: -2.12

input: Need furin cleavage Z-score, item CAQASLLKVPAGNASASA [HC612]
output: -0.112

input: State the recorded furin cleavage Z-score for this entry: CASSPCSAHLAGNASASA [HC2497]
output: 0.911
